TARGET OR SYSTEM: transferrin
Sequence (P02787 20-698): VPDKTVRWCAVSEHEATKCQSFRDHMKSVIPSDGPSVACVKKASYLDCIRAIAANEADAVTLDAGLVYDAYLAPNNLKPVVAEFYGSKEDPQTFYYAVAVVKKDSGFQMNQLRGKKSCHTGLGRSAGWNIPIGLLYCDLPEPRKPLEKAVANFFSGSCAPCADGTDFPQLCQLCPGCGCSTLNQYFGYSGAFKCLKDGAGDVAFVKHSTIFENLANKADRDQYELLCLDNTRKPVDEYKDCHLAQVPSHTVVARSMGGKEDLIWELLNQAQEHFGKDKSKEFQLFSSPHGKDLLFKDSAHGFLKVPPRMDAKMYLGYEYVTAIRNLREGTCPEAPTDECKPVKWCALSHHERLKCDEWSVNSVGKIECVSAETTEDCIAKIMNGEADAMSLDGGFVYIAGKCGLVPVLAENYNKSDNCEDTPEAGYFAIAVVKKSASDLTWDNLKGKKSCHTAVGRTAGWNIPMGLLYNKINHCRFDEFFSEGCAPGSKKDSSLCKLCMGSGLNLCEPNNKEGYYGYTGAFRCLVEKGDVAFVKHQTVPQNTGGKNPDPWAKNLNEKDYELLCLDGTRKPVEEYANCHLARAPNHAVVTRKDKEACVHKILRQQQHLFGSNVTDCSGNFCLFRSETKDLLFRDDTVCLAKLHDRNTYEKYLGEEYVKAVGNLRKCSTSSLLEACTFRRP
EXPERIMENT SUMMARY: peptide microarray, rank by score; no organic prewash
Binary call on Rank - non-prewash with cut-off 700 rank: strictly below means 1.0, and equality or higher means 0.0.

| BINDER | ANSWER LABEL |
| --- | --- |
| LDPLFNTSIMVNWHRWMGSC [TRF27] | 0.0 |
| GQTQFAMHRFQQWYKIKGSC [TRF20] | 1.0 |
| FRGWAHIFFGPHVIYRGGSC [TRF23] | 0.0 |
| APYAPQQIHYWSTLGFKGSC [TRF25] | 0.0 |
| SVKPWRPLLTGNRWLNSGSC [TRF24] | 1.0 |
| QYHHFMNLKRQGRAQAYGSC [TRF21] | 1.0 |
| AHKVVPQRQIRHAYNRYGSC [TRF26] | 1.0 |
